Origin of values: paper PMC12416549

Molecular target: T1, TNFR1 (Homo sapiens, UniProt P19438)
T1 chain: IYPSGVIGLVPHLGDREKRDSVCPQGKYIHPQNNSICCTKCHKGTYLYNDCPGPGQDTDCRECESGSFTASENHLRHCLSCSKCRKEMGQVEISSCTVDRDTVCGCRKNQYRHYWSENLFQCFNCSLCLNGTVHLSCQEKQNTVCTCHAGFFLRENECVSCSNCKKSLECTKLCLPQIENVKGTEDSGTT
Experiment: yeast display SC50
quantity.kind: apparent Kd (screen) (nM)

// worked examples, apparent Kd (screen) included
{"columns": ["binder", "unit.of.measure", "observed.measurement"],
 "data": [
  ["L79H (designed binder) SMEEEVEKAAKEYEKKKKEAIEKHLEKLKAKDKEAAERFLKELEEAAKEYAKDEAKTMSEEEAKRRAKKYKEKVLLSEHSEEEQKEIKEAEEKLVRTILKYVEEAAK", "nM", 13.8],
  ["M58F (designed binder) SMEEEVEKAAKEYEKKKKEAIEKHLEKLKAKDKEAAERFLKELEEAAKEYAKDEAKTFSEEEAKRRAKKYKEKVLLSELSEEEQKEIKEAEEKLVRTILKYVEEAAK", "nM", 11.4],
  ["K41P (designed binder) SMEEEVEKAAKEYEKKKKEAIEKHLEKLKAKDKEAAERFLPELEEAAKEYAKDEAKTMSEEEAKRRAKKYKEKVLLSELSEEEQKEIKEAEEKLVRTILKYVEEAAK", "nM", 2.48],
  ["K64Q (designed binder) SMEEEVEKAAKEYEKKKKEAIEKHLEKLKAKDKEAAERFLKELEEAAKEYAKDEAKTMSEEEAQRRAKKYKEKVLLSELSEEEQKEIKEAEEKLVRTILKYVEEAAK", "nM", 0.446],
  ["H24G (designed binder) SMEEEVEKAAKEYEKKKKEAIEKGLEKLKAKDKEAAERFLKELEEAAKEYAKDEAKTMSEEEAKRRAKKYKEKVLLSELSEEEQKEIKEAEEKLVRTILKYVEEAAK", "nM", 0.718]
]}

(a) Y101Q (designed binder) SMEEEVEKAAKEYEKKKKEAIEKHLEKLKAKDKEAAERFLKELEEAAKEYAKDEAKTMSEEEAKRRAKKYKEKVLLSELSEEEQKEIKEAEEKLVRTILKQVEEAAK
(b) S1Y (designed binder) YMEEEVEKAAKEYEKKKKEAIEKHLEKLKAKDKEAAERFLKELEEAAKEYAKDEAKTMSEEEAKRRAKKYKEKVLLSELSEEEQKEIKEAEEKLVRTILKYVEEAAK
(c) K107V (designed binder) SMEEEVEKAAKEYEKKKKEAIEKHLEKLKAKDKEAAERFLKELEEAAKEYAKDEAKTMSEEEAKRRAKKYKEKVLLSELSEEEQKEIKEAEEKLVRTILKYVEEAAV
Arrange items by their apparent Kd (screen) values in increasing order. Respond with an ordered listing of the labels, as requested.
a, c, b

(1) E49A (designed binder) SMEEEVEKAAKEYEKKKKEAIEKHLEKLKAKDKEAAERFLKELEEAAKAYAKDEAKTMSEEEAKRRAKKYKEKVLLSELSEEEQKEIKEAEEKLVRTILKYVEEAAK
(2) K48D (designed binder) SMEEEVEKAAKEYEKKKKEAIEKHLEKLKAKDKEAAERFLKELEEAADEYAKDEAKTMSEEEAKRRAKKYKEKVLLSELSEEEQKEIKEAEEKLVRTILKYVEEAAK
Identify the item whose apparent Kd (screen) is the smaller number: 1 or 2 Identify your selection by its label.
2
(2: 0.49 nM, 1: 2.73 nM)
